system: MCF-7 cells; assay: MTT cytotoxicity assay in MCF-7 cells; assay type: cell-based, human; conditions: Homo sapiens, MCF7, 48 h, means ± sd, n = 3

| COMPOUND | DISPLAY UNIT | IC50 |
| --- | --- | --- |
| C/C(=N/NC(=S)NC(=O)c1ccccc1)c1c(O)ccc2c(C)cc(=O)oc12 | µM | 47.3 |
| CCOc1ccc2c(C)cc(=O)oc2c1/C(C)=N\NC(=S)NCc1ccccc1 | µM | 2.61 |
| O=c1[nH]cc(F)c(=O)[nH]1 [Compound 5-FU, 5-fluorouracil, reference compound] | µM | 27.8 |
| CCOc1ccc2c(C)cc(=O)oc2c1/C(C)=N\NC(=S)NC | µM | 11.1 |
| CCOc1ccc2c(C)cc(=O)oc2c1/C(C)=N\NC(=S)Nc1ccc(OC)cc1 | µM | 1.21 |
| CCOc1ccc2c(C)cc(=O)oc2c1/C(C)=N\NC(=S)NC(=O)c1ccccc1 | µM | 43.1 |
| C=CCNC(=S)N/N=C(/C)c1c(OCC)ccc2c(C)cc(=O)oc12 | µM | 2.72 |
| C/C(=N/NC(=S)NCc1ccccc1)c1c(O)ccc2c(C)cc(=O)oc12 | µM | 5.13 |
| C/C(=N/N=C1/SCC(=O)N1C(=O)c1ccccc1)c1c(O)ccc2c(C)cc(=O)oc12 | µM | 1.03 |
| CCNC(=S)N/N=C(/C)c1c(OCC)ccc2c(C)cc(=O)oc12 | µM | 38.7 |
